- experimentalSystem: T1, mouse CD47 (mouse, UniProt Q61735 19-303)
- T1 construct: whole, on cells; also called CD47 on mouse red blood cells
- T1 sequence (looked up): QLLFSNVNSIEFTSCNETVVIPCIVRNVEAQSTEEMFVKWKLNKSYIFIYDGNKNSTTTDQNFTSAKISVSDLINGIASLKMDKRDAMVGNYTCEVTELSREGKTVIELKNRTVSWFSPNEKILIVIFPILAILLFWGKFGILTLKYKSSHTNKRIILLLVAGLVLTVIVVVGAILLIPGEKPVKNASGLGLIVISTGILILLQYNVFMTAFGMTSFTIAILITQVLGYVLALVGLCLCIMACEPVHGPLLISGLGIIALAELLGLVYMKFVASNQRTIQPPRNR
- assayMethodText: flow cytometry on RBCs, antibody 10 ng/ml
Measured mean fluorescence relative to chimeric antibody, listed per entry.

The recorded mean fluorescence relative to chimeric antibody for pVxK7b-037-hum24-LC/pVxK7b-037-hum24-HC (antibody, human IgG1, V domains shown, Full-length human IgG1/kappa in CHO supernatant; Variable entries end within framework 4 (...FGQG / ...WGQG); also called Clone 24) VH: QVQLQESGPGLVKPGATVKISCKVSGYTFTNYYVFWVRQARGQRLEWIGDINPVNGDTNFNEKFKNRVTITADKSTSTAYMELSSLRSEDTAVYYCARGGYTMDYWGQG VL: AIQLTQSPSSLSASVGDRVTITCRSSQSLVHSNGNTYLHWYQQKPGQAPRLLIYKVSYRFSGVPSRFSGSGSGTEFTLTISSLQPDDFATYYCSQNTHVPRTFGQG is 0.7 fold of chimera

The recorded mean fluorescence relative to chimeric antibody for pVxK7b-037-hum12-LC/pVxK7b-037-hum12-HC (antibody, human IgG1, V domains shown, Full-length human IgG1/kappa in CHO supernatant; Variable entries end within framework 4 (...FGQG / ...WGQG); also called Clone 12) VH: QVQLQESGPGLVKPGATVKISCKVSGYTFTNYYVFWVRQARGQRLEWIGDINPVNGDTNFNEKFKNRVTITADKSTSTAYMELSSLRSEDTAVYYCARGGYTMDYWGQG VL: DIVMTQTPLSLPVTPGEPASISCRSSQSLVHSNGNTYLHWYQQKPGKAPKLLIYKVSYRFSGVPDRFSGSGSGTDFTLKISRVEAEDVGVYYCSQNTHVPRTFGQG is 0.6 fold of chimera

The recorded mean fluorescence relative to chimeric antibody for pVxK7b-037-hum14-LC/pVxK7b-037-hum14-HC (antibody, human IgG1, V domains shown, Full-length human IgG1/kappa in CHO supernatant; Variable entries end within framework 4 (...FGQG / ...WGQG); also called Clone 14) VH: QVQLQESGPGLVKPSQTLSLTCTVSGYTFTNYYVFWVRQARGQRLEWIGDINPVNGDTNFNEKFKNRVTISADKSISTAYLQWSSLKASDTAMYYCARGGYTMDYWGQG VL: DVVMTQSPLSLPVTLGQPASISCRSSQSLVHSNGNTYLHWYQQKPGKAPKLLIYKVSYRFSGVPDRFSGSGSGTDFTLKISRVEAEDVGVYYCSQNTHVPRTFGQG is 1.5 fold of chimera

The recorded mean fluorescence relative to chimeric antibody for pVxK7b-037-hum20-LC/pVxK7b-037-hum20-HC (antibody, human IgG1, V domains shown, Full-length human IgG1/kappa in CHO supernatant; Variable entries end within framework 4 (...FGQG / ...WGQG); also called Clone 20) VH: QITLKESGPTLVKPTQTLTLTCTFSGYTFTNYYVFWVRQAPGQGLEWMGDINPVNGDTNFNEKFKNRVTITADKSTSTAYMELSSLRSEDTAVYYCARGGYTMDYWGQG VL: DIVMTQTPLSLPVTPGEPASISCRSSQSLVHSNGNTYLHWYLQKPGQSPQLLIYKVSYRFSGVPDRFSGSGSGTDFTLKISRVEAEDVGVYYCSQNTHVPRTFGQG is 1.5 fold of chimera

The recorded mean fluorescence relative to chimeric antibody for pVxK7b-037-hum16-LC/pVxK7b-037-hum16-HC (antibody, human IgG1, V domains shown, Full-length human IgG1/kappa in CHO supernatant; Variable entries end within framework 4 (...FGQG / ...WGQG); also called Clone 16) VH: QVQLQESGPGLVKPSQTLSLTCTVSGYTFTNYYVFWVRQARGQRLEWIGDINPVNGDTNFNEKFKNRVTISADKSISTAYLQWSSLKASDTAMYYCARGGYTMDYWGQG VL: AIQLTQSPSSLSASVGDRVTITCRSSQSLVHSNGNTYLHWYQQKPGQAPRLLIYKVSYRFSGVPDRFSGSGSGTDFTLKISRVEAEDVGVYYCSQNTHVPRTFGQG is 1 fold of chimera

Reference source: patent US20140161799A1
